experiment summary: Metabolic stability in mouse liver microsomes
Format: in vitro ADME
conditions used: Table 12; 37° C., NADPH (1 mM), microsomes 0.5 mg/mL, test compounds 1.5 μM
This listing pairs compounds with measured Mouse microsomes t1/2.
Just the number in min, nothing appended.

O=C(Nc1ccc2sc(-c3ccccc3)nc2c1)c1ccccc1 [Compound 17, 5-Benzamido-2-phenylbenzothiazole] has a reported Mouse microsomes t1/2 of 50

---

experiment summary: Mouse oral pharmacokinetics
Type: in vivo
conditions used: Table 13; mice, single 50 mg/kg oral gavage; vehicle methylcellulose cP 400 (0.5%), Tween 80 (0.5%) in water; read-out: Cmax
property label: Cmax (µM)
Answer format: numeric, µM implied, no suffix.

Reported Cmax for O=C(Nc1ccc2sc(-c3ccc(F)c(F)c3)nc2c1)N1CC[C@H](F)C1 was 8.54
